Assay: soluble on expression in E. coli; label from the status in PepcDB or PDB records
Reported Property: soluble on expression in E. coli

INSERT INTO results (sequence_text, reported_property, assay_result) VALUES
  ('SSIEFLAVEKQKIIAKETLELYAKIAGRIGMYPVKTQLADLSFKVLDPKNFNNTLSKINQQKVFYDNEWGNFKKQLEEMLEQNQIEYRLE', 'soluble on expression in E. coli', 'not soluble'),
  ('MKVGVVGLQGDVSEHIEATKMAIEKLELPGEVIWLKRPEQLKGVDAVIIPGGESTTISRLMQRTGLFEPIKKMVEDGLPVMGTCAGLIMLAKEVLGATPEQKFLEVLDVKVNRNAYGRQVDSFEAPVKLAFDDEPFIGVFIRAPRIVELLSEKVKPLAWLEDRVVGVEQENIIGLEFHPELTNDTRIHEYFLRKVI', 'soluble on expression in E. coli', 'soluble'),
  ('AGYPPASPSNLSCLMHLTTNSLVCQWEPGPETHLPTSFILKSFRSRADCQYQGDTIPDCVAKKRQNNCSIPRKNLLLYQYMAIWVQAENMLGSSESPKLCLDPMDVVKLEPPMLQALDIGPDVVSHQPGCLWLSWKPWKPSEYMEQECELRYQPQLKGANWTLVFHLPSSKDQFELCGLHQAPVYTLQMRCIRSSLPGFWSPWSPGLQLRPTMKA', 'soluble on expression in E. coli', 'soluble'),
  ('MAKLTRLGDLERAVMDHLWSRTEPQTVRQVHEALSARRDLAYTTVMTVLQRLAKKNLVLQIRDDRAHRYAPVHGRDELVAGLMVDALAQAEDSGSRQAALVHFVERVGADEADALRRALAELEAGHGNRPPAGAATET', 'soluble on expression in E. coli', 'soluble'),
  ('MSTFSFIIVNNEQVRIHDIQGKSHMSPYNGKKVNNVEGVVTALDKNGFYIEDNQPDNDPATSEGMYVYKKDANVAVGDLIQVDGVVEEYVGPGYAERFETDLTTTEIKASRVVVIAKDQSLPAPIVLGENGVKIPDQIIDNDAFGLFDPNEDAIDFYESIEGMRVTMPTPKVIAPQKNGNLYVTVKNGGDKIVTQYGTPLLDENQLNPERLSVKVPRDYVAKVGDTFTGDITGVVGYDYGSFRISPITELPAVVDGGFKQVGANIQPRLDKLTVATYNIENFSANKKETTDEKVKALAYSIKYNLKMPDIIGVEEMQDNNGSINDLEHHHHHH', 'soluble on expression in E. coli', 'not soluble'),
  ('MAAAKIKKGDTVLVVRGKEKGKQGKVLKVYERVKRRDKQGNPVYVRHFVIVEGVRLIKKHVKPIEGVREGGIIETEGPIDISNVMLICPNCNKPTRVGFRIVEEGNVRRKYRYCKKCNENIDLVSEKVIKGG', 'soluble on expression in E. coli', 'soluble'),
  ('TTFTTRDGTQIYYKDWGSGQPIVFSHGWPLNADSWESQMIFLAAQGYRVIAHDRRGHGRSSQPWSGNDMDTYADDLAQLIEHLDLRDAVLFGFSTGGGEVARYIGRHGTARVAKAGLISAVPPLMLKTEANPGGLPMEVFDGIRQASLADRSQLYKDLASGPFFGFNQPGAKSSAGMVDWFWLQGMAAGHKNAYDCIKAFSETDFTEDLKKIDVPTLVVHGDADQVVPIEASGIASAALVKGSTLKIYSGAPHGLTDTHKDQLNADLLAFIKG', 'soluble on expression in E. coli', 'soluble'),
  ('LDNAPLLELDVQEWVNHEGLSNEDLRGKVVVVEVFQMLCPGCVNHGVPQAQKIHRMIDESQVQVIGLHSVFEHHDVMTPEALKVFIDEFGIKFPVAVDMPREGQRIPSTMKKYRLEGTPSIILADRKGRIRQVQFGQVDDFVLGLLLGSLLSETD', 'soluble on expression in E. coli', 'not soluble');
